Test system: SK-OV-3 ovarian
Assay: NCI tumour cell line growth inhibition, 48 h
Property: TGI; scope: individual compounds
ATTRIBUTE_MEASURED: TGI

>>> measured_result("COc1cc(C2c3cc4c(cc3OC3(OC)COC(=O)C23)OCO4)cc(OC)c1OC(C)=O (stereo not given)")
"> 100 µM"
>>> measured_result("Cc1nn(-c2ccc(Cl)cc2)c2nc3c(nc12)C(=O)c1ccccc1-3")
"> 100 µM"
>>> measured_result("O=C(/C=C/c1cccc2ccccc12)c1ccccc1Cl")
"43.1 µM"
>>> measured_result("CC1c2c(Cl)nc3ccccc3c2Oc2c1c(Cl)nc1ccccc21")
"> 100 µM"
>>> measured_result("C=C(C)[C@@H]1CC[C@]2(C)[C@H](CC=C3[C@@H]4CC(C)(C)CC[C@]4(C(N)=O)CC[C@]32C)[C@@]1(C)CCC#N")
"> 100 µM"

###

System: UO-31 renal
Test: NCI tumour cell line growth inhibition, 48 h
Property: TGI; scope: individual compounds
ATTRIBUTE_MEASURED: TGI (µM)

>>> measured_result("CC(=O)c1c(C)n([O-])c2cc(Cl)c(Cl)cc2[n+]1=O")
32.9
>>> measured_result("COc1ccc2c(c1)C(=O)c1c-2c(N2CCN(C(=O)CNCCNCCO)CC2)nc2ccccc12")
4.54

###

Test system: NCI-H226 lung
Test: NCI tumour cell line growth inhibition, 48 h
ATTRIBUTE_MEASURED: TGI

>>> measured_result("Cc1ccccc1N1C(=O)C2C=CC(n3[nH]c(=O)n(Cc4ccccc4)c3=O)CC2C1=O (stereo not given)")
"> 100 µM"
>>> measured_result("O=C(/C=C/c1cccc2ccccc12)c1ccccc1Cl")
"> 100 µM"
>>> measured_result("COC(=O)C(Cc1nc2ccc(Cl)cc2[nH]c1=O)/C(=N\\N)C(=O)Nc1cc(C)c(Cl)cc1S(=O)(=O)O (stereo not given)")
"> 100 µM"
>>> measured_result("COC(=O)C1=C(O)C(C(=O)OC)[C@]2(O)[C@H](C(=O)OC)[C@H]1C[C@@H](c1ccc(C(F)(F)F)cc1)[C@H]2C(=O)OC (stereo not given in full)")
"7.36 µM"
>>> measured_result("COC(=O)c1ccccc1/C=C1\\Cc2ccc(C)c(C)c2C1=O")
"> 100 µM"

###

Test system: SF-268 CNS
Assay: NCI tumour cell line growth inhibition, 48 h
ATTRIBUTE_MEASURED: TGI (µM)

>>> measured_result("Nc1nc(/C=C\\c2ccc([N+](=O)[O-])s2)nc(N2CCCC2)n1")
13.6
>>> measured_result("CCC[CH2][Sn]([Cl])([CH2]CCC)[CH2]CCC")
0.314
>>> measured_result("COc1ccc2[nH]cc(C3(c4c[nH]c5ccc(OC)cc45)C(=O)Nc4ccc(F)cc43)c2c1")
12.7
>>> measured_result("Cc1ncc(C(=O)Nc2ccc(CN3CCN(C)CC3)c(C(F)(F)F)c2)cc1C#Cc1cnc(N)c2ccncc12")
2.99

###

System: SK-MEL-5 melanoma
Assay: NCI tumour cell line growth inhibition, 48 h
ATTRIBUTE_MEASURED: GI50

>>> measured_result("CN(C)CC[PH+](c1ccccc1)c1ccccc1.CN(C)CC[PH+](c1ccccc1)c1ccccc1.[Cl-].[Pd+2]")
"> 100 µM"
>>> measured_result("O=C(CC1(O)C(=O)N(Cc2ccccc2)c2ccc(F)cc21)c1ccc(C(=O)NCC2CCC3(CC2)OOC2(CCCCC2)OO3)cc1 (stereo unspecified)")
"1.54 µM"
>>> measured_result("NCCNc1c2c(c(NCCN)c3[nH]ccc13)C(=O)c1ccccc1C2=O")
"0.178 µM"
>>> measured_result("CCn1c2ccccc2c2cc(NC(=O)Nc3ccc([N+](=O)[O-])cc3C)ccc21")
"14.3 µM"
>>> measured_result("Nc1c(C(=O)Nc2ccncc2)sc2nc3c(cc12)CCCCCCCC3")
"0.831 µM"
>>> measured_result("C=C(C)[C@@H]1CC[C@]2(C)[C@H](CC=C3[C@@H]4CC(C)(C)CC[C@]4(C(N)=O)CC[C@]32C)[C@@]1(C)CCC#N")
"1.83 µM"
>>> measured_result("CCC[CH2][Sn]([Cl])([CH2]CCC)[CH2]CCC")
"0.192 µM"
>>> measured_result("COc1ccc(Nc2nnc(-c3cc(O)ccc3O)s2)cc1")
"10.3 µM"
>>> measured_result("COc1ccc2[nH]cc(C3(c4c[nH]c5ccc(OC)cc45)C(=O)Nc4ccc(F)cc43)c2c1")
"1.98 µM"
>>> measured_result("Cn1cc(C2=C(c3cn(CCCCO)c4ccccc34)C(=O)NC2=O)c2ccccc21")
"6.26 µM"
>>> measured_result("CCC(/C=C/C1OC(=O)C=CC1C)=C\\C(C)C/C=C/C(C)=C/C(C)C(=O)C(C)C(O)C(C)C/C(C)=C/C(=O)O (stereo unspecified)")
"0.408 µM"

Numbers sourced from PubChem BioAssay (NCI).
